- target or test system: human IL-15 complexed with the IL-15 Receptor-alpha (human, UniProt P40933 49-162)
- Sequence (P40933 49-162 limits assumed, chain 1 of 2): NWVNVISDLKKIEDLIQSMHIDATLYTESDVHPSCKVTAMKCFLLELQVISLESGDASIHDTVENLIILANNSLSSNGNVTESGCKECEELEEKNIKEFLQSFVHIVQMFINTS
- Sequence (chain, as listed by the source limits assumed, chain 2 of 2): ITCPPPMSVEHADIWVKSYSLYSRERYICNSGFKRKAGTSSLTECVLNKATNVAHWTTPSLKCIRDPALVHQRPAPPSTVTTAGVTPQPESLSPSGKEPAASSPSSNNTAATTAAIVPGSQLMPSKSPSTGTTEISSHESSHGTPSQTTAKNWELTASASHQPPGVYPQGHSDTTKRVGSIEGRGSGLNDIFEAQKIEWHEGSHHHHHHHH
- assay remarks: cell-based or functional assay
Could you please mark Y for values of IC 50 (NK-92) in pM below 6 pM and N for values at or above it?

binder	assigned category
Antibody 77 (antibody, V domains shown) VH: QVQLQESGPGLVKPSGTLSLTCAVSGGSISSSNWWSWVRQPPGKGLEWIGEIYHYGYTNYNPSLKSRVTISVDKSKNQFSLKLISVTAADTAVYYCAREGIGWPSFDYWGQGTLVTVSS VL: SSELTQDPAASVALGQTVRITCQGDTLRNYYASWYQQKPGQAPILVIYGKNNRPSGIPDRFSGSSSGNTASLTITGAQAEDEADYYCNSRDFSGKNLVFGGGTKLTVL	Y

Please determine if Antibody 63 (antibody, V domains shown) VH: QVQLQESGPGLVKPSGTLSLTCAVSGGSISSSNWWSWVRQPPGKGLEWIGEIYHYGYTNYNPSLKSRVTISVDKSKNQFSLKLSSVTAADTAVYYCAREGIGWPSFDYWGQGTLVTVSS VL: SSELTQDPAASVALGQTVRITCQGDTLRNYYASWYQQKPGQAPILVIYGKNNRPSGIPDRFSGSSSGNTASLTITGAQAEDEADYYCNSRDSSGKNLVFGGGTKLTVL is below 6 pM in terms of IC 50 (NK-92) in pM.
Y

Please determine if Antibody 64 (antibody, V domains shown) VH: QVQLQESGPGLVKPSGTLSLTCAVSGGSISSSNWWSWVRQPPGKGLEWIGEIYHYGYTNYNPSLKSRVTISVDKSKNQFSLKLSSVTAADTAVYYCAREGIGWPSFDYWGQGTLVTVSS VL: SSELTQDPAASVALGQTVRITCQGDTLRSYYASWYQQKPGQAPILVIYGKNNRPSGIPDRFSGSSSGNTASLTITGAQAEDEADYYCNSRDSSGKNLVFGGGTKLTVLG is below 6 pM in terms of IC 50 (NK-92) in pM.
N

Please determine if Antibody 74 (antibody, V domains shown) VH: QVQLQESGPGLVKPSGTLSLTCAVSGGSISSSNWWSWVRQPPGKGLEWIGEIYHYGYTNYNPSLKSRVTISVDKSKNQFSLKLISVTAADTAVYYCAREGIGWPSFDYWGQGTLVTVSS VL: SSELTQDPAASVALGQTVRITCQGDTLRNYYASWYQQKPGQAPILVIYGKNNRPSGIPDRFSGSSSGNTASLTITGAQAEDEADYYCNSRESSGKNLVFGGGTKLTVL is below 6 pM in terms of IC 50 (NK-92) in pM.
N

Please determine if Antibody 4 (antibody, V domains shown, not shown: a dimerising Fc or GST, from section 3.4 on as recombinant human IgG1 lambda; also called parent antibody; parental antibody) VH: QVQLQESGPGLVKPSGTLSLTCAVSGGSISSSNWWSWVRQPPGKGLEWIGEIYHSGNTNYNPSLKSRVTISVDKSKNQFSLKLISVTAADTAVYYCAREGIGWPSFDYWGQGTLVTVSS VL: SSELTQDPAASVALGQTVRITCQGDTLRNYYASWYQQKPGQAPILVIYGKNNRPSGIPDRFSGSSSGNTASLTITGAQAEDEADYYCNSRDSSGKNLVFGGGTKLTVLG is below 6 pM in terms of IC 50 (NK-92) in pM.
N

Please determine if Antibody 69 (antibody, V domains shown) VH: QVQLQESGPGLVKPSGTLSLTCAVSGGSISSSNWWSWVRQPPGKGLEWIGEIYHYGYTNYNPSLKSRVTISVDKSKNQFSLKLSSVTAADTAVYYCAREGIGWPSFDYWGQGTLVTVSS VL: SSELTQDPAASVALGQTVRITCQGDTLRSYYASWYQQKPGQAPILVIYGKNNRPSGIPDRFSGSSSGNTASLTITGAQAEDEADYYCNSRESSGKNLVFGGGTKLTVL is below 6 pM in terms of IC 50 (NK-92) in pM.
N

Please determine if Antibody 67 (antibody, V domains shown) VH: QVQLQESGPGLVKPSGTLSLTCAVSGGSISSSNWWSWVRQPPGKGLEWIGEIYHYGYTNYNPSLKSRVTISVDKSKNQFSLKLSSVTAADTAVYYCAREGIGWPSFDYWGQGTLVTVSS VL: SSELTQDPAASVALGQTVRITCQGDTLRNYYASWYQQKPGQAPILVIYGKNNRPSGIPDRFSGSSSGNTASLTITGAQAEDEADYYCNSRDESGKNLVFGGGTKLTVL is below 6 pM in terms of IC 50 (NK-92) in pM.
N

Please determine if Antibody 68 (antibody, V domains shown) VH: QVQLQESGPGLVKPSGTLSLTCAVSGGSISSSNWWSWVRQPPGKGLEWIGEIYHYGYTNYNPSLKSRVTISVDKSKNQFSLKLSSVTAADTAVYYCAREGIGWPSFDYWGQGTLVTVSS VL: SSELTQDPAASVALGQTVRITCQGDTLRNYYASWYQQKPGQAPILVIYGKNNRPSGIPDRFSGSSSGNTASLTITGAQAEDEADYYCNSRDFSGKNLVFGGGTKLTVLG is below 6 pM in terms of IC 50 (NK-92) in pM.
Y

Please determine if Antibody 65 (antibody, V domains shown) VH: QVQLQESGPGLVKPSGTLSLTCAVSGGSISSSNWWSWVRQPPGKGLEWIGEIYHYGYTNYNPSLKSRVTISVDKSKNQFSLKLSSVTAADTAVYYCAREGIGWPSFDYWGQGTLVTVSS VL: SSELTQDPAASVALGQTVRITCQGDTLRNYYASWYQQKPGQAPILVIYGKNNRPSGIPDRFSGSSSGNTASLTITGAQAEDEADYYCNSRESSGKNLVFGGGTKLTVL is below 6 pM in terms of IC 50 (NK-92) in pM.
N

Please determine if Antibody 11 (antibody, V domains shown) VH: QVQLQESGPGLVKPSGTLSLTCAVSGGSISSSNWWSWVRQPPGKGLEWIGEIYHYGYTNYNPSLKSRVTISVDKSKNQFSLKLISVTAADTAVYYCAREGIGWPSFDYWGQGTLVTVSS VL: SSELTQDPAASVALGQTVRITCQGDTLRNYYASWYQQKPGQAPILVIYGKNNRPSGIPDRFSGSSSGNTASLTITGAQAEDEADYYCNSRDSSGKNLVFGGGTKLTVLG is below 6 pM in terms of IC 50 (NK-92) in pM.
N

The measured values listed here are drawn from patent US20200270339A1.
